- System: Escherichia coli K12 C600 IAM 1264
- Protocol Details: Antibacterial activity, agar-dilution MIC, organism No. 6
- Type: cell-based
- Condition: Escherichia coli, IAM1264; Organism No. 6, bouillon-agar; read-out: Minimum Inhibitory Concentration
Property Measured: MIC (µg/mL)
One number for each entry, in µg/mL.

These recorded examples may help you get a feel for the data.
[C-]#[N+]C12CC3(/C=C/C(=O)N(C(=O)NC4CCCCC4)C4CCCCC4)OC3C1O2 (stereo not drawn) | 6.25
[C-]#[N+]C12CC3(/C=C/C(=O)Nc4cccc(C)c4)OC3C1O2 (stereo not drawn) | 12.5
[C-]#[N+]C12CC3(/C=C/C(=O)NC4C(=O)N5C4SC(C)(C)C5C(=O)OCC(=O)c4ccc(Br)cc4)OC3C1O2 (stereo not drawn) | 25
[C-]#[N+]C12CC3(/C=C/C(=O)Nc4ccccc4OC)OC3C1O2 (stereo not drawn) | 200

Below are 4 molecules. Give each one its MIC.
1. [C-]#[N+]C12CC3(/C=C/C(=O)O)OC3C1O2 (stereo not drawn) [α substituted acrylic acid, reference compound]
2. [C-]#[N+]C12CC3(/C=C/C(=O)Nc4cccc(C(F)(F)F)c4)OC3C1O2 (stereo not drawn)
3. [C-]#[N+]C12CC3(/C=C/C(=O)OCC(=O)c4ccc([N+](=O)[O-])cc4)OC3C1O2 (stereo not drawn)
4. [C-]#[N+]C12CC3(/C=C/C(=O)N[C@@H](CCC(=O)OC)C(=O)OC)OC3C1O2 (stereo partly drawn)

[12.5, 200, 25, 100]

====

- System: Staphylococcus aureus FDA 209PJc-1
- Protocol Details: Antibacterial activity, agar-dilution MIC, organism No. 1
- Assay type: cell-based
- Condition: Staphylococcus aureus, FDA209PJC1; Organism No. 1, bouillon-agar; read-out: Minimum Inhibitory Concentration
Property Measured: MIC (µg/mL)
Give bare numbers, in µg/mL.

# annotated cases, reported MIC shown
[C-]#[N+]C12CC3(/C=C/C(=O)NC4C(=O)N5C4SC(C)(C)C5C(=O)OCC(=O)c4ccc(Br)cc4)OC3C1O2 (stereo not shown) | 1.56
[C-]#[N+]C12CC3(/C=C/C(=O)Nc4ccccc4C)OC3C1O2 (stereo not shown) | 0.78
[C-]#[N+]C12CC3(/C=C/C(=O)Nc4ccc(OC(C)C)cc4)OC3C1O2 (stereo not shown) | 0.78
[C-]#[N+]C12CC3(/C=C/C(=O)OCc4cccc(OC)c4)OC3C1O2 (stereo not shown) | 1.56

Each molecule below has a recorded value; state its MIC.
1. [C-]#[N+]C12CC3(/C=C/C(=O)OCC(=O)c4ccc(C)cc4)OC3C1O2 (stereo not shown)
2. [C-]#[N+]C12CC3(/C=C/C(=O)Nc4nc5ccccc5s4)OC3C1O2 (stereo not shown)
3. [C-]#[N+]C12CC3(/C=C/C(=O)OCc4cccc([N+](=O)[O-])c4)OC3C1O2 (stereo not shown)
4. [C-]#[N+]C12CC3(/C=C/C(=O)OCc4ccccc4[N+](=O)[O-])OC3C1O2 (stereo not shown)
5. [C-]#[N+]C12CC3(/C=C/C(=O)OCC(=O)c4ccc(Br)cc4)OC3C1O2 (stereo not shown) [Compound No. 4, p-bromophenacylβ-substituted acrylate]
6. [C-]#[N+]C12CC3(/C=C/C(=O)NOC)OC3C1O2 (stereo not shown)

1. 0.39
2. 0.39
3. 200
4. 0.39
5. 0.4
6. 25

====

- System: Staphylococcus aureus Terajima
- Protocol Details: Antibacterial activity, agar-dilution MIC, organism No. 2
- Assay type: cell-based
- Condition: Staphylococcus aureus; Organism No. 2, bouillon-agar; read-out: Minimum Inhibitory Concentration
Property Measured: MIC (µg/mL)
Answers are plain numbers, in µg/mL.

Answered cases to consult:
[C-]#[N+]C12CC3(/C=C/C(=O)Nc4cccc(OC)c4)OC3C1O2 (centres unmarked) [compound 54] | 1.56
[C-]#[N+]C12CC3(/C=C/C(=O)Nc4nc5ccccc5s4)OC3C1O2 (centres unmarked) [compound 70] | 0.78
[C-]#[N+]C12CC3(/C=C/C(=O)OCC(=O)c4ccc([N+](=O)[O-])cc4)OC3C1O2 (centres unmarked) [compound 8] | 25
[C-]#[N+]C12CC3(/C=C/C(=O)N4CCOCC4)OC3C1O2 (centres unmarked) [compound 22] | 100
[C-]#[N+]C12CC3(/C=C/C(=O)Nc4ccc(C)cc4)OC3C1O2 (centres unmarked) [compound 37] | 1.56

The record that follows has no MIC shown yet.
Tell me the measured MIC of [C-]#[N+]C12CC3(/C=C/C(=O)Nc4cccc(C(=O)O)c4)OC3C1O2 (centres unmarked) [compound 52] , please.
50

====

Please go through the items and note down their MIC.
- Tested on: Pseudomonas aeruginosa IFO 3445
- Protocol Details: Antibacterial activity, agar-dilution MIC, organism No. 15
- Assay type: cell-based
- Condition: Pseudomonas aeruginosa, IFO3445; Organism No. 15, bouillon-agar; read-out: Minimum Inhibitory Concentration

Example results:
[C-]#[N+]C12CC3(/C=C/C(=O)Nc4ccc(I)cc4)OC3C1O2 (stereo not drawn) | > 200 µg/mL
[C-]#[N+]C12CC3(/C=C/C(=O)OCC(=O)c4ccc([N+](=O)[O-])cc4)OC3C1O2 (stereo not drawn) | > 100 µg/mL
[C-]#[N+]C12CC3(/C=C/C(=O)Nc4ccc(C(=O)OC)cc4)OC3C1O2 (stereo not drawn) | > 200 µg/mL
[C-]#[N+]C12CC3(/C=C/C(=O)Nc4ccc(Br)cc4)OC3C1O2 (stereo not drawn) | > 200 µg/mL
[C-]#[N+]C12CC3(/C=C/C(=O)Nc4ccccc4C)OC3C1O2 (stereo not drawn) | > 200 µg/mL
[C-]#[N+]C12CC3(/C=C/C(=O)O)OC3C1O2 (stereo not drawn) [α substituted acrylic acid, reference compound] | 200 µg/mL
[C-]#[N+]C12CC3(/C=C/C(=O)Nc4nnc(C)s4)OC3C1O2 (stereo not drawn) | > 200 µg/mL
[C-]#[N+]C12CC3(/C=C/C(=O)NOC)OC3C1O2 (stereo not drawn) | 200 µg/mL

Param readout = MIC; param system = Pseudomonas aeruginosa IFO 3445; param query = [C-]#[N+]C12CC3(/C=C/C(=O)Nc4ccc5c(c4)OCO5)OC3C1O2 (stereo not drawn) ; response: value
> 200 µg/mL

====

- Test system: Staphylococcus aureus Terajima
- Protocol Details: Antibacterial activity, agar-dilution MIC, organism No. 2
- Assay type: cell-based
- Condition: Staphylococcus aureus; Organism No. 2, bouillon-agar; read-out: Minimum Inhibitory Concentration
// returns 0 (no) unless MIC is strictly below 3 µg/mL, in which case 1 (yes)

Example cases with answers are listed next.
[C-]#[N+]C12CC3(/C=C/C(=O)Nc4ccccc4)OC3C1O2 (centres unmarked) [Compound No. 36] | 1 (yes)
[C-]#[N+]C12CC3(/C=C/C(=O)Nc4ccc(F)cc4)OC3C1O2 (centres unmarked) [compound 43] | 0 (no)
[C-]#[N+]C12CC3(/C=C/C(=O)Nc4ccccc4N)OC3C1O2 (centres unmarked) [compound 61] | 0 (no)
[C-]#[N+]C12CC3(/C=C/C(=O)OCc4cc([N+](=O)[O-])ccc4O)OC3C1O2 (centres unmarked) [Compound No. 17] | 0 (no)
[C-]#[N+]C12CC3(/C=C/C(=O)Nc4ccc(Br)cc4)OC3C1O2 (centres unmarked) [compound 44] | 0 (no)
[C-]#[N+]C12CC3(/C=C/C(=O)OCC(C)C)OC3C1O2 (centres unmarked) [compound 18] | 0 (no)
[C-]#[N+]C12CC3(/C=C/C(=O)Nc4ccc(OCCC)cc4)OC3C1O2 (centres unmarked) [compound 73] | 1 (yes)
[C-]#[N+]C12CC3(/C=C/C(=O)N[C@@H](CCC(=O)OC)C(=O)OC)OC3C1O2 (some centres unmarked) [Compound No. 26] | 0 (no)

Confirm or reject: MIC of [C-]#[N+]C12CC3(/C=C/C(=O)Nc4ccccc4C(N)=O)OC3C1O2 (centres unmarked) [compound 62] lies strictly below 3 µg/mL
0 (no)

Next entry: [C-]#[N+]C12CC3(/C=C/C(=O)Nc4ccc(I)cc4)OC3C1O2 (centres unmarked) [compound 45]
0 (no)

Follow-up item: [C-]#[N+]C12CC3(/C=C/C(=O)Nc4cccc(O)c4)OC3C1O2 (centres unmarked) [compound 57]
0 (no)

And the next one, [C-]#[N+]C12CC3(/C=C/C(=O)N4CCN(C)CC4)OC3C1O2 (centres unmarked) [compound 23] ?
0 (no)

Now the same for [C-]#[N+]C12CC3(/C=C/C(=O)OCC(=O)c4ccc(C)cc4)OC3C1O2 (centres unmarked) [compound 6]
0 (no)

Now consider [C-]#[N+]C12CC3(/C=C/C(=O)Nc4ccc(C(F)(F)F)cc4)OC3C1O2 (centres unmarked) [compound 46] and answer again.
1 (yes)

Source: patent US4684664A
